Tested on: MDA-MB-435
protocol description: NCI tumour cell line growth inhibition, 48 h
Activity calls are given as the source filed them. Rule as the data show it: active = GI50 up to about 1.1 µM and inactive = higher.
Bench note: report the call from Yes = active, No = inactive

COC(=O)C1(Cc2ccc3c(c2)CCC3)Cc2cc3c(cc2C1=O)CCC3 (stereo unspecified) :: No
O=C(N/N=C1\C(=O)Nc2ccc(Br)cc21)/C(O)=C/C(=O)c1ccc(Cl)cc1 :: No
CS(=O)(=O)c1n[nH]c2nc(O)nc(O)c12 :: No
CS(=O)(=O)OCC1CN(S(C)(=O)=O)c2cc(O)ccc21 (stereo unspecified) :: No
CCCOC1OC(CS(=O)(=O)O)C(O)C(O)C1O (stereo unspecified) :: No

Answer briefly: the call reported for `[N-]=[N+]=Nc1cc(=O)n(-c2ccccc2)c(=O)n1-c1ccccc1` in this assay.
No

Answer briefly: the call reported for O=C(CC(C(=O)c1cccs1)c1ccc2c(c1)OCO2)c1ccccc1 (stereo unspecified) in this assay.
No

Answer briefly: the call reported for `COC(=O)[C@]12CC[C@H]3CC[C@H]([C@H]31)[C@H](c1ccccc1)N2` in this assay.
No

###

Tested on: KM-20L2
protocol description: NCI tumour cell line growth inhibition, 48 h
Calls of active or inactive are those of the source. No stated cut-off is given here; in the data, active = GI50 up to about 1.1 µM and inactive = higher.
recorded endpoint: GI50

Below, each entry is followed by its recorded GI50 result.
COc1ccc(C2C3C(=O)C=CC(=O)C3[C@@H]2C)cc1OC (stereo partly drawn) :: > 100 µM (inactive)
O=C1CCC2COc3ccc(O)c1c32 (stereo not drawn) :: > 100 µM (inactive)
O=C(N[C@@H]1C=CCC[C@@H]1c1ccccc1)OCc1ccccc1 :: 20 µM (inactive)
O=C1N(C2CCCCC2)CC12CCCCC2 :: > 100 µM (inactive)
C=CC(=O)C#CC#CC/C=C\CCCCCCC :: > 20.6 µM (inactive)
C(=C/c1nc2ccccc2o1)/c1ccc2c(c1)OCO2 :: 6.61 µM (inactive)
COc1c2c(nc3ccccc13)-c1cc3c(c(=O)n1C2)COC(=O)C3(O)CC(=O)N1CCOCC1 (stereo not drawn) :: 15.4 µM (inactive)
COc1ccc(/C=N/NC(=O)CSc2nc(-c3ccccc3)c(-c3ccccc3)[nH]2)cc1OC :: 19.1 µM (inactive)

Lab request: please report GI50 under test system KM-20L2 for `O=[PH](O)c1ccccn1`
> 100 µM (inactive)

Lab request: please report GI50 under test system KM-20L2 for CCOC(=O)C1S/C(=N\c2ccccc2)N=C1C (stereo not drawn)
55.7 µM (inactive)

Lab request: please report GI50 under test system KM-20L2 for C[C@H](CCC1SC1(C)C)C1CCC2(C)C3=C(CC[C@]12C)[C@@]1(C)CC[C@H](O)C(C)(C)C1CC3 (stereo partly drawn)
> 100 µM (inactive)

###

Let's look at some molecules and their measured GI50.
System: MDA-N
protocol description: NCI tumour cell line growth inhibition, 48 h
Calls of active or inactive are those of the source. Cut-off read from the data, not from the text of the source: active = GI50 up to about 1.1 µM and inactive = higher.

Below, each entry is followed by its recorded GI50 result.
O=[N+]([O-])c1cccc2c(/N=N/c3ccc4ccccc4c3O)c(O)cc(S(=O)(=O)O)c12 :: 31.1 µM (inactive)
C[C@H]1CCC/C=C/[C@@H]2C[C@H](OC3OC(CO)C(O)C(O)C3O)C[C@H]2[C@H](O)/C=C/C(=O)O1 (some centres undefined) :: 36.3 µM (inactive)
CN(C)Cc1cc(Cl)c(O)c(CN(C)C)c1 :: > 100 µM (inactive)
COc1cc2c(cc1O)CC1c3c(cc(O)c(OC)c3-2)CCN1C (centres undefined) :: > 100 µM (inactive)
COc1ccc(C(=O)/C=C/c2cccnc2)cc1OC :: 12.4 µM (inactive)

Sample `CC(C)Oc1cccc(N2C(n3ccnc3)=Nc3ccncc3S2(=O)=O)c1` — what was its GI50?
12.8 µM (inactive)

Sample `CNc1nc(C(N)=O)c(N)s1` — what was its GI50?
> 100 µM (inactive)

Sample `C=CC[N+]12CN3CN(CN(C3)C1)C2` — what was its GI50?
17.3 µM (inactive)

Sample CN(C)c1ccc(C2CC(=O)CC(c3ccc(N(C)C)cc3)C23C(=O)NC(=S)NC3=O)cc1 (centres undefined) — what was its GI50?
> 100 µM (inactive)

###

Test system: K562
protocol description: NCI tumour cell line growth inhibition, 48 h
The source made the active and inactive calls. Cut-off read from the data, not from the text of the source: active = GI50 up to about 1.1 µM and inactive = higher.
recorded endpoint: GI50

Sample CCOC(=O)C1S/C(=N\c2ccccc2)N=C1C (stereo not given) — what was its GI50?
40.7 µM (inactive)

Sample `CCOC(=O)c1oc2c(OC)ccc3c2c1CCC3` — what was its GI50?
66.8 µM (inactive)

Sample `c1ccc2c(c1)nnn2CNc1ccc(N2CCOCC2)cc1` — what was its GI50?
> 100 µM (inactive)

Sample `COc1cc(C)cc(C(=O)/C=C/c2ccccc2)c1O` — what was its GI50?
40.6 µM (inactive)

Sample `C=C[C@H]1CN2CCc3c([nH]c4c([C@@H]5CCCN5C)c(O)ccc34)[C@@H]2C[C@@H]1C[C@H]1c2[nH]c3ccccc3c2CCN1C` — what was its GI50?
0.211 µM (active)

###

Test system: DLD-1
protocol description: NCI tumour cell line growth inhibition, 48 h
The source made the active and inactive calls. Rule as the data show it: active = GI50 up to about 1.1 µM and inactive = higher.
recorded endpoint: GI50

Below, each entry is followed by its recorded GI50 result.
Cc1c(C(=O)/C=C/c2cccc3ccccc23)[n+]([O-])c2ccccc2[n+]1[O-] :: 10.6 µM (inactive)
CCOC(=O)c1cccnc1C(OC(C)=O)OC(C)=O :: > 100 µM (inactive)
CSC(=N)N1N=C2/C(=C/c3ccccc3)CCC[C@H]2[C@H]1c1ccccc1 :: 3.48 µM (inactive)

Sample `C=C1Oc2nc3ccccc3c(=O)n2C1(C)C` — what was its GI50?
> 100 µM (inactive)

Sample C[C@@]1(Cc2ccccc2)C(=O)N2[C@@H](CO)C(c3ccccc3)O[C@]2(C)c2ccccc21 (stereo partly drawn) — what was its GI50?
> 100 µM (inactive)

Sample `c1ccc2c(c1)nnn2CNc1ccc(N2CCOCC2)cc1` — what was its GI50?
> 100 µM (inactive)

Sample `Nc1nc(Cl)cc(NCCCCCCCCCCNc2cc(Cl)nc(N)n2)n1` — what was its GI50?
6.5 µM (inactive)

Sample CCOC(=O)CC1COc2ccc3c(c21)OCO3 (stereo not drawn) — what was its GI50?
> 100 µM (inactive)

###

Tested on: OVCAR-8
protocol description: NCI tumour cell line growth inhibition, 48 h
The source made the active and inactive calls. No stated cut-off is given here; in the data, active = GI50 up to about 1.1 µM and inactive = higher. Where a SMILES comes first, the peptide text is derived from it. The star is where a group is joined. Boc = CC(C)(C)OC(=O)*
Bench note: report the call from yes (active), no (inactive)

Known results for compounds:
O=P1(O)c2ccccc2CS(=O)(=O)Cc2ccccc21 :: no
O=c1[nH]nc(-c2ccccc2)n1O :: no
NC(=O)CCC(CCC(N)=O)(CCC(N)=O)[N+](=O)[O-] :: no
S=C(Cc1ccc2c(c1)Sc1ccccc1O2)N1CCOCC1 :: no
C=C1Oc2nc3ccccc3c(=O)n2C1(C)C :: no
CCCc1cc(=O)oc2c3c(c4c(c12)OC(C)(C)CC4)O[C@@H](C)[C@H](C)[C@H]3O :: no
COc1ccc2[nH]cc(C(=O)C(=O)NC34CC5CC(CC(C5)C3)C4)c2c1 :: no
CC1=NN2C(=N)/C(=C/c3ccc(F)cc3)C(=O)N=C2S1 :: no
COC1CC(OS(=O)(=O)c2ccc([N+](=O)[O-])cc2)C(OC(=O)c2ccccc2)C(C)O1 (stereo not given) :: no
O=C1CCC(=O)C(C(=O)CCC(=O)Nc2cccc(Cl)c2)C1 (stereo not given) :: no

Answer briefly: the call reported for O=[N+]([O-])c1cccnc1NCC1(CO)CC(Cc2ccccc2)C1 (stereo not given) in this assay.
no

Answer briefly: the call reported for Nc1nc(Cl)c(C=O)c(NCC2(CO)CC(CCc3ccccc3)C2)n1 (stereo not given) in this assay.
no

Answer briefly: the call reported for C=C1CC(C)(COc2ccc3c(C)c(C)c(=O)oc3c2C)OC1=O (stereo not given) in this assay.
no

Answer briefly: the call reported for `CC[C@H]1C=CCC[C@@]2(C[C@@H]3CC[C@@H]4[C@H](C(=O)OCCCCCCCCCCCCCCCC(=O)N(CCCN)CCCCN)[C@]5(CCC[C@@H](C)O5)NC(=[N+]34)N2)O1` in this assay.
yes

Answer briefly: the call reported for COC(=O)[C@H](Cc1ccc(O)cc1)NC(=O)[C@H](Cc1ccc(O)cc1)NC(=O)OC(C)(C)C (Boc-Tyr-Tyr-OMe) in this assay.
no

Answer briefly: the call reported for `CC(=O)/C=C1\CC(=O)N(C)c2ccccc2N1` in this assay.
no

Answer briefly: the call reported for O=C(Nc1ccc2[nH]c(C(=O)N3CC(CCl)c4ccc([N+](=O)[O-])cc43)cc2c1)c1cc2ccccc2o1 (stereo not given) in this assay.
no

Answer briefly: the call reported for COc1ccc(C2C3C(=O)C=CC(=O)C3[C@@H]2C)cc1OC (stereo not given in full) in this assay.
no

Answer briefly: the call reported for `[N-]=[N+]=Nc1cc(=O)n(-c2ccccc2)c(=O)n1-c1ccccc1` in this assay.
no

Answer briefly: the call reported for `CCOc1ccc(-c2oc(/C=N/NS(=O)(=O)c3ccc(C)cc3)c([N+](=O)[O-])c2-c2ccc(OCC)cc2)cc1` in this assay.
no
